B1: PHTF1 (parent)
chain: RVKLISNKGTETDNDPSCVHPIIK

variants of: B1; test: protein stability index of a GFP-peptide fusion (GPS, HEK-293T) (PSI 1-6); higher = more stable; details: c terminus: a fixed tail appended;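 note: lentivirally expressed fusions sorted by FACS into six bins by GFP to DsRed ratio, PSI derived from sequencing read proportions per bin multiplied by bin number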
Quick rule: protein stability index of at least 4 means met, below that means not met.

Record excerpt, results attached:
query.sequence	class.name
RHKLISNKGTETDNDPSCVHPIIK [V2H]	met
RVKLISNKGTETDNDPSCVHCIIK [P21C]	not met
REKLISNKGTETDNDPSCVHPIIK [V2E]	met
RVKLISHKGTETDNDPSCVHPIIK [N7H]	not met
RVKLIKNKGTETDNDPSCVHPIIK [S6K]	met
RVYLISNKGTETDNDPSCVHPIIK [K3Y]	not met

**Q:** Test whether the variant RVKLISNKGTETDNDDSCVHPIIK [P16D] records protein stability index of 4 or higher.
**A:** met

**Q:** Test whether the variant YVKLISNKGTETDNDPSCVHPIIK [R1Y] records protein stability index of 4 or higher.
**A:** not met

**Q:** Test whether the variant RVKLISNKGTETDNDPKCVHPIIK [S17K] records protein stability index of 4 or higher.
**A:** met

**Q:** Test whether the variant RVKLISNKGTETDNDPSCEHPIIK [V19E] records protein stability index of 4 or higher.
**A:** met

**Q:** Test whether the variant RVKLISNKGTETDNDPSCVHPVIK [I22V] records protein stability index of 4 or higher.
**A:** met

**Q:** Test whether the variant GVKLISNKGTETDNDPSCVHPIIK [R1G] records protein stability index of 4 or higher.
**A:** met
